Reference source for all entries: ChEMBL document CHEMBL3400010

METHOD SUMMARY: Antioxidant activity assessed as FRAP values at 50 ug/ml incubated at 37 degC for 5 mins by FeSO4.7H2O calibration curve based method
Type: physicochemical
Activity overview
ATTRIBUTE MEASURED: Activity

MOLECULE | ATTRIBUTE MEASURED | RESULT VALUE
O=C(OC[C@H]1O[C@@H](Oc2cc(O)c(C(=O)c3ccccc3)c(O)c2)[C@H](O)[C@@H](O)[C@@H]1O)c1cc(O)c(O)c(O)c1 | Activity | 131.03 µmol/L
O=c1c(O[C@@H]2O[C@H](CO)[C@H](O)[C@H](O)[C@H]2O)c(-c2ccc(O)c(O)c2)oc2cc(O)cc(O)c12 [HYPEROSIDE] | Activity | 287.94 µmol/L
O=C(OC[C@H]1O[C@@H](Oc2cc(-c3ccccc3)oc(=O)c2)[C@H](O)[C@@H](O)[C@@H]1O)c1cc(O)c(O)c(O)c1 | Activity | 250.53 µmol/L

====

METHOD SUMMARY: Antioxidant activity assessed as DPPH radical scavenging activity after 30 mins by microplate reader based assay
Format: physicochemical
ATTRIBUTE MEASURED: IC50 (µg/mL)

SMILES RECORD | BOUND TYPE | RESULT VALUE
Cc1c(O)c(C)c(O[C@@H]2O[C@H](CO)[C@@H](O)[C@H](O)[C@H]2O)c(C(=O)c2ccccc2)c1O | > | 100
Cc1c(O)cc(O[C@@H]2O[C@H](CO)[C@@H](O)[C@H](O)[C@H]2O)c(C(=O)c2ccccc2)c1O | > | 100
C/C(=C/O[C@@H]1O[C@H](COC(=O)c2cc(O)c(O)c(O)c2)[C@@H](O)[C@H](O)[C@H]1O)C(=O)O | = | 13.1
O=C(OC[C@H]1O[C@@H](Oc2cc(-c3ccccc3)oc(=O)c2)[C@H](O)[C@@H](O)[C@@H]1O)c1cc(O)c(O)c(O)c1 | = | 13.07
O=C1O[C@H]([C@@H](O)CO)C(O)=C1O | = | 16.3
O=c1c(O[C@@H]2O[C@@H](CO)[C@H](O)[C@H]2O)c(-c2ccc(O)c(O)c2)oc2cc(O)cc(O)c12 | = | 16.13
O=c1c(O)c(-c2ccc(O)c(O)c2)oc2cc(O)cc(O)c12 | = | 11
Cc1c(O)c(C(=O)c2ccccc2)c(O)c(C)c1O[C@@H]1O[C@H](COC(=O)c2cc(O)c(O)c(O)c2)[C@@H](O)[C@H](O)[C@H]1O | = | 28.33

====

METHOD SUMMARY: Antioxidant activity assessed as DPPH radical scavenging activity after 30 mins by microplate reader based assay
Assay type: physicochemical
ATTRIBUTE MEASURED: IC50 (µg/mL)

COMPOUND | RESULT UNIT | RESULT VALUE
O=c1c(O[C@@H]2O[C@H](CO)[C@H](O)[C@H](O)[C@H]2O)c(-c2ccc(O)c(O)c2)oc2cc(O)cc(O)c12 [HYPEROSIDE] | µg/mL | 27.03
O=c1c(O[C@@H]2OC[C@H](O)[C@H](O)[C@H]2O)c(-c2ccc(O)c(O)c2)oc2cc(O)cc(O)c12 | µg/mL | 13.43
O=C(OC[C@H]1O[C@@H](Oc2cc(O)c(C(=O)c3ccccc3)c(O)c2)[C@H](O)[C@@H](O)[C@@H]1O)c1cc(O)c(O)c(O)c1 | µg/mL | 37.93

====

METHOD SUMMARY: Antioxidant activity assessed as FRAP values at 25 ug/ml incubated at 37 degC for 5 mins by FeSO4.7H2O calibration curve based method
Type: physicochemical
Activity overview

COMPOUND | Activity / µmol/L
O=c1c(O[C@@H]2O[C@H](CO)[C@H](O)[C@H](O)[C@H]2O)c(-c2ccc(O)c(O)c2)oc2cc(O)cc(O)c12 [HYPEROSIDE] | 155.89
Cc1c(O)c(C)c(O[C@@H]2O[C@H](CO)[C@@H](O)[C@H](O)[C@H]2O)c(C(=O)c2ccccc2)c1O | 14
O=C1O[C@H]([C@@H](O)CO)C(O)=C1O | 292.1

====

IC50 overview
Test system: A549
METHOD SUMMARY: Cytotoxicity against human A549 cells by MTT assay
Format: functional, cell-based

COMPOUND | IC50
O=c1c(O[C@@H]2O[C@@H](CO)[C@H](O)[C@H]2O)c(-c2ccc(O)c(O)c2)oc2cc(O)cc(O)c12 | > 10 µg/mL
COc1cccc2c1C(=O)c1c(O)c3c(c(O)c1C2=O)C[C@@](O)(C(=O)CO)C[C@@H]3O[C@H]1C[C@H](N)[C@H](O)[C@H](C)O1 | 3.12 µg/mL
O=c1c(O[C@@H]2O[C@H](CO)[C@H](O)[C@H](O)[C@H]2O)c(-c2ccc(O)c(O)c2)oc2cc(O)cc(O)c12 [HYPEROSIDE] | > 10 µg/mL
C/C(=C/O[C@@H]1O[C@H](COC(=O)c2cc(O)c(O)c(O)c2)[C@@H](O)[C@H](O)[C@H]1O)C(=O)O | 7.01 µg/mL
Cc1c(O)c(C(=O)c2ccccc2)c(O)c(C)c1O[C@@H]1O[C@H](COC(=O)c2cc(O)c(O)c(O)c2)[C@@H](O)[C@H](O)[C@H]1O | > 10 µg/mL
Cc1c(O)cc(O[C@@H]2O[C@H](CO)[C@@H](O)[C@H](O)[C@H]2O)c(C(=O)c2ccccc2)c1O | > 10 µg/mL
O=c1c(O[C@@H]2OC[C@H](O)[C@H](O)[C@H]2O)c(-c2ccc(O)c(O)c2)oc2cc(O)cc(O)c12 | > 10 µg/mL
Cc1c(O)c(C)c(O[C@@H]2O[C@H](CO)[C@@H](O)[C@H](O)[C@H]2O)c(C(=O)c2ccccc2)c1O | > 10 µg/mL
O=C(OC[C@H]1O[C@@H](Oc2cc(O)c(C(=O)c3ccccc3)c(O)c2)[C@H](O)[C@@H](O)[C@@H]1O)c1cc(O)c(O)c(O)c1 | > 10 µg/mL
O=c1c(O)c(-c2ccc(O)c(O)c2)oc2cc(O)cc(O)c12 | > 10 µg/mL
O=C(OC[C@H]1O[C@@H](Oc2cc(-c3ccccc3)oc(=O)c2)[C@H](O)[C@@H](O)[C@@H]1O)c1cc(O)c(O)c(O)c1 | 7.29 µg/mL

====

Activity overview
METHOD SUMMARY: Antioxidant activity assessed as FRAP values at 50 ug/ml incubated at 37 degC for 5 mins by FeSO4.7H2O calibration curve based method
Type: physicochemical
ATTRIBUTE MEASURED: Activity (µmol/L)

COMPOUND | ATTRIBUTE MEASURED | RESULT VALUE
O=C1O[C@H]([C@@H](O)CO)C(O)=C1O [ASCORBIC ACID] | Activity | 396.76
O=c1c(O[C@@H]2O[C@@H](CO)[C@H](O)[C@H]2O)c(-c2ccc(O)c(O)c2)oc2cc(O)cc(O)c12 [AVICULARIN] | Activity | 291.63
C/C(=C/O[C@@H]1O[C@H](COC(=O)c2cc(O)c(O)c(O)c2)[C@@H](O)[C@H](O)[C@H]1O)C(=O)O | Activity | 263.31
